Test: in vitro
Details: human, human liver (fraction not stated)
Rule: remaining at 60 min below 70% gives MET, anything at or above gives NOT MET.

For this compound, is remaining at 60 min lower than 70%? "CCC(CC)O[C@@H]1C=C(C(=O)O)C[C@H](NCc2ccc(-c3ccsc3)cc2OC)[C@H]1NC(C)=O"
NOT MET

For this compound, is remaining at 60 min lower than 70%? "C[C@]12CC[C@H]3[C@@H](CCC4=CC(=O)CC[C@@]43C)[C@@H]1CC[C@@H]2O"
MET

For this compound, is remaining at 60 min lower than 70%? "CCC(CC)O[C@@H]1C=C(C(=O)O)C[C@H](NCc2ccc(-c3ccsc3)cc2O)[C@H]1NC(C)=O"
MET

For this compound, is remaining at 60 min lower than 70%? "CCC(CC)O[C@@H]1C=C(C(=O)O)C[C@H](NCc2ccc(-c3ccsc3)cc2Cl)[C@H]1NC(C)=O"
NOT MET

For this compound, is remaining at 60 min lower than 70%? CCC(CC)O[C@@H]1C=C(C(=O)O)C[C@H](N)[C@H]1NC(C)=O [OSELTAMIVIR CARBOXYLATE]
MET

For this compound, is remaining at 60 min lower than 70%? "CCC(CC)O[C@@H]1C=C(C(=O)O)C[C@H](NCc2ccc(-c3cccs3)cc2OC)[C@H]1NC(C)=O"
NOT MET

For this compound, is remaining at 60 min lower than 70%? "CCC(CC)O[C@@H]1C=C(C(=O)O)C[C@H](NCc2ccc(-c3cccs3)cc2Cl)[C@H]1NC(C)=O"
NOT MET
